IC50 for Discoidin domain-containing receptor 2 (Homo sapiens), merged from several publications.
- system: Discoidin domain-containing receptor 2 (Homo sapiens)
- Sequence (Q16832 whole entry): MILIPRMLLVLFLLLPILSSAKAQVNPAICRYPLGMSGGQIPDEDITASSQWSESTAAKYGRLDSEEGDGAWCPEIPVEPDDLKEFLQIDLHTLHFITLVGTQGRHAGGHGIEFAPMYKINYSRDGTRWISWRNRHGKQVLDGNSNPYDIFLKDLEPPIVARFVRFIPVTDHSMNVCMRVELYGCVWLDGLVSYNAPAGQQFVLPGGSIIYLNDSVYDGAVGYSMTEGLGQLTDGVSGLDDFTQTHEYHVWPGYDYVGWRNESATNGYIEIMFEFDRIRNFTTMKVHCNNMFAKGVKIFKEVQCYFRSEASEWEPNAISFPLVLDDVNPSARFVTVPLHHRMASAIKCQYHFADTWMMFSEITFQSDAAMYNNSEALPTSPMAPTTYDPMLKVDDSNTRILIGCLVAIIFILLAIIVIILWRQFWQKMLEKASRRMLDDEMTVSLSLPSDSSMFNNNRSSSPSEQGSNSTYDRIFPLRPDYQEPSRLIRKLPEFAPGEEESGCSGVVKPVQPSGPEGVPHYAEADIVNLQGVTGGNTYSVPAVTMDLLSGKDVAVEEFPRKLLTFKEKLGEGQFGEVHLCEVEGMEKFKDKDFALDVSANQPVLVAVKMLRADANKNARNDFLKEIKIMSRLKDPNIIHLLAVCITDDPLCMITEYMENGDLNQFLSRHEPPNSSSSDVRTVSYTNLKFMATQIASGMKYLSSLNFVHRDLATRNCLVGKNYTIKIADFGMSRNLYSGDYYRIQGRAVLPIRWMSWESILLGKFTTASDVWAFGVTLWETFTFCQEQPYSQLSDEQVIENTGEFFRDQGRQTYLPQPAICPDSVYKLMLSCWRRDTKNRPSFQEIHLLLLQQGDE
measured.quantity: IC50 (nM)

smiles.record: O=C(Nc1ccc(Cl)c(-c2ccc3cn[nH]c3c2)c1)c1cccc(C(F)(F)F)c1
qualifier.operator: =
readout.number: 9.5

smiles.record: Cc1ccc(C(=O)Nc2cccc(CN3CCN(C)CC3)c2)cc1-c1ccc2cn[nH]c2c1
qualifier.operator: =
readout.number: 75.9

smiles.record: Cc1ccc(C(=O)Nc2cccc(C(C)(C)C#N)c2)cc1-c1ccc2cn[nH]c2c1
qualifier.operator: =
readout.number: 2.7

smiles.record: Cc1ccc([C@H](C)NC(=O)Nc2cccc(F)c2)cc1NC(=O)c1cnc2ccccn12
qualifier.operator: =
readout.number: 4.5

smiles.record: COc1ccc2c(c1)c(CNC(=O)Nc1ccc(F)cc1F)cn2CC(=O)N1CCCC1
qualifier.operator: =
readout.number: 1330

smiles.record: Cc1ccc([C@H](C)NC(=O)c2cccc(C(F)(F)F)c2)cc1NC(=O)c1cnc2ccccn12
qualifier.operator: =
readout.number: 5.8

smiles.record: Cc1cn(-c2cccc(NC(=O)c3ccc(C)c(Nc4nccc(-c5cccnc5)n4)c3)c2)cn1
qualifier.operator: =
readout.number: 653

smiles.record: Cc1ccc(C(=O)Nc2cccc(C(F)(F)F)c2)cc1-c1ccc2c(-c3ccc(C(=O)N4CCN(C)CC4)cc3)n[nH]c2c1
qualifier.operator: =
readout.number: 6.5

smiles.record: Cc1ccc(C(=O)Nc2cccc(C(F)(F)F)c2)cc1-c1ccc2c(-c3cnn(C)c3)n[nH]c2c1
qualifier.operator: =
readout.number: 4.4

smiles.record: CCn1cc(-c2n[nH]c3cc(-c4cc(C(=O)Nc5cccc(C(F)(F)F)c5)ccc4C)ccc23)cn1
qualifier.operator: =
readout.number: 2.6

smiles.record: Cc1n[nH]c2ccc(-c3cc(N[C@@H](CO)c4ccccc4)cnc3Cl)cc12
qualifier.operator: >
readout.number: 1000

smiles.record: Cc1ccc(C(=O)Nc2cc(CN3CCN(C4CCCC4)CC3)cc(C(F)(F)F)c2)cc1-c1ccc2cn[nH]c2c1
qualifier.operator: =
readout.number: 7

smiles.record: Cc1ccc(CNC(=O)Nc2cccc(F)c2)cc1NC(=O)c1cnc2ccccn12
qualifier.operator: =
readout.number: 3.3

smiles.record: Cc1ccc(C(=O)Nc2cccc(C(F)(F)F)c2)cc1-c1ccc2c(-c3cn[nH]c3)n[nH]c2c1
qualifier.operator: =
readout.number: 55.6

smiles.record: Cc1ccc(C(=O)Nc2cccc(C(F)(F)F)c2)cc1-c1ccc2c(-c3cnn(C4CCN(C)CC4)c3)n[nH]c2c1
qualifier.operator: =
readout.number: 3.8

smiles.record: O=C(NCc1cn(CC(=O)N2CCCC2)c2ccc(F)cc12)Nc1ccc(F)cc1F
qualifier.operator: =
readout.number: 1670

smiles.record: O=C(Nc1ccc(F)c(-c2ccc3cn[nH]c3c2)c1)c1cccc(C(F)(F)F)c1
qualifier.operator: =
readout.number: 64.3

smiles.record: Cc1ccc(CNC(=O)Nc2ccccc2)cc1NC(=O)c1cnc2ccccn12
qualifier.operator: =
readout.number: 8.2
